Kindly state IC50 for each of the entries shown.
Species on record: Mus musculus
Test: Inhibitory concentration of compound on nitric oxide (NO) production in lipopolysaccharide activated mouse peritoneal macrophages
Format: functional
Conditions: read-out: IC50

> print(dat)
              molecule  observed.measurement
1  O=C(O)/C=C/c1ccccc1              > 100 µM

Okay, here is my list. What is IC50 for each of these?
1. C=C[C@H](OC(C)=O)c1ccccc1
2. COc1cc(/C=C/C(=O)O)cc(OC)c1O [SINAPINATE]
3. CCC(OC(C)=O)c1ccc(OC(C)=O)cc1 (stereo unspecified)
4. O=C/C=C/c1ccc(O)cc1 [p-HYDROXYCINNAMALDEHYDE]

Response:
1. > 100 µM
2. > 100 µM
3. 10 µM
4. 20 µM

Lab note: C=C[C@@H](OC(C)=O)c1ccc(OC(C)=O)cc1 gave IC50 of 8.2 µM
